experimental.target: BCRP (Homo sapiens)
experiment.summary: biochemical
condition.parameters: IC50 of telaprevir on BCRP-mediated transport, substrate not specified
pIC50: −log10 of the molar value.
recorded.metric: pIC50

# compound CCC[C@H](NC(=O)[C@@H]1[C@H]2CCC[C@H]2CN1C(=O)[C@@H](NC(=O)[C@@H](NC(=O)c1cnccn1)C1CCCCC1)C(C)(C)C)C(=O)C(=O)NC1CC1 ; its pIC50 = ~4.52

###

experimental.target: BCRP (Homo sapiens)
Sequence (Q9UNQ0 1-655): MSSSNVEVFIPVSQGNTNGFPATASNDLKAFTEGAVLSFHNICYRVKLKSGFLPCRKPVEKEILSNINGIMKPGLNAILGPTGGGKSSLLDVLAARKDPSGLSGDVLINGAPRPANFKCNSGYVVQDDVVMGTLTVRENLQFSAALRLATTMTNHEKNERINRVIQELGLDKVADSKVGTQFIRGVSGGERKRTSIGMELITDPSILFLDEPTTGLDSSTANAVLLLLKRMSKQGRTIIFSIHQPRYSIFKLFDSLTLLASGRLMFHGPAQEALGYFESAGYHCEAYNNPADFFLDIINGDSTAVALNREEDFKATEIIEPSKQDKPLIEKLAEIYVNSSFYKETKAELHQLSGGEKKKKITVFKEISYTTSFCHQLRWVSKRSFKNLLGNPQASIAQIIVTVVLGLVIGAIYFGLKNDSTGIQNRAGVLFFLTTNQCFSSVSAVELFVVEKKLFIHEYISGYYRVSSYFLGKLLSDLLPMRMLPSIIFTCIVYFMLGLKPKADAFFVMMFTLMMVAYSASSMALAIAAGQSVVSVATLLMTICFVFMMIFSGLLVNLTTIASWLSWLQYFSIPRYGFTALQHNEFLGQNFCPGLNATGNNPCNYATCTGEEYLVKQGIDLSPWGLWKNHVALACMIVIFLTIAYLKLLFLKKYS
experiment.summary: biochemical
condition.parameters: IC50 of telaprevir on BCRP-mediated transport, substrate MTX; K562/BCRP vesicles
recorded.metric: IC50 (µM)
Number only, in µM; omit the unit.

Log: BCRP (Homo sapiens), molecule CCC[C@H](NC(=O)[C@@H]1[C@H]2CCC[C@H]2CN1C(=O)[C@@H](NC(=O)[C@@H](NC(=O)c1cnccn1)C1CCCCC1)C(C)(C)C)C(=O)C(=O)NC1CC1 , IC50 = 31
